assay: Toxicity liver stage against HepG2, at 10uM; format: cell-based; set-up: test concentration 10 uM, cell line HepG2-A16-CD81EGFP; settings: human, HepG2-A16-CD81EGFP cells; read-out: INHIBITION
Entries and their cytotoxicity at 10 µM values follow.
Reply numerically in %, unit not repeated.

Recorded cytotoxicity at 10 µM, per entry:
COMPOUND: c1cncc(CN2CCC(c3csc4nccn34)CC2)c1
RESULT NUMBER: 2.9
--
COMPOUND: O=C(C1=CC2(CCN(CCO)CC2)c2ccccc21)N1CCCC1
RESULT NUMBER: -1.16
--
COMPOUND: Cc1nc(CN2C(=O)CCC23CCN(Cc2ccco2)CC3)cs1
RESULT NUMBER: -105
--
COMPOUND: CNC(=O)[C@@]12CCC3(CCN(C(C)=O)CC3)[C@@H]1CN(S(C)(=O)=O)C2
RESULT NUMBER: -3.61
--
COMPOUND: COc1ccc(NC(=O)C2CC2)cc1OCc1cccnc1
RESULT NUMBER: -50.5

[in] Item Cc1nn(C)c(C)c1CCC(=O)N1CCN(CCn2cncn2)CC1 has what recorded cytotoxicity at 10 µM?
[out] 2.33

[in] Query: cytotoxicity at 10 µM; subject: O=C(CCN1CCc2ccccc21)N1C[C@@H](O)[C@H](N2CCOCC2)C1
[out] 1.23

[in] Bench note: what cytotoxicity at 10 µM did CCS(=O)(=O)N1CCC2(CC1)CC(Oc1ccccn1)CO2 (stereo unspecified) show?
[out] -1.58

[in] Reported cytotoxicity at 10 µM, compound O=C1N(Cc2ccc(F)cc2)CCCC12CCN(C1CCSCC1)C2 (stereo unspecified) : ____
[out] 1.77

[in] Which cytotoxicity at 10 µM value is on record for Cc1nc2n(n1)CC(NCc1c(Cl)ccc3cccnc13)CC2 (stereo unspecified) ?
[out] 0.0383

[in] // cytotoxicity at 10 µM lookup, key: c1cnc(NCc2nnn3c2CN(CC2CC2)CCC3)nc1
[out] -0.536

[in] Item Cc1cc(-n2cccn2)ccc1CN1C[C@@H](CN(C)C)[C@@H](CO)C1 has what recorded cytotoxicity at 10 µM?
[out] -9.4

[in] # lookup: cytotoxicity at 10 µM of COCC(C)NC(=O)c1nnn(-c2ccc(Br)cc2)n1 (stereo unspecified)
[out] -0.712

[in] // query cytotoxicity at 10 µM value for entry CC(C)CN1C[C@@H]2CN(C(=O)[C@H]3CCCO3)C[C@@H]2C1=O
[out] 6.03

[in] Any idea what cytotoxicity at 10 µM was measured for O=C1CCCCCN1Cc1cccc(OC(F)F)c1 ?
[out] -6.4

* * *

experiment: Toxicity liver stage against HepG2, at 10uM; assay type: cell-based; design: test concentration 10 uM, cell line HepG2-A16-CD81EGFP; settings: human, HepG2-A16-CD81EGFP cells; read-out: INHIBITION
ENDPOINT: cytotoxicity at 10 µM (%)
Quick note: give the figure in %, leave out the unit.

MOLECULE: COCCN(C)C[C@H]1C[C@H](CO)CN(C(=O)c2ccn(C)c(=O)c2)C1
ENDPOINT: cytotoxicity at 10 µM
UNITS TEXT: %
RESULT NUMBER: -2.75
//
MOLECULE: CN1CCOC(CNC(=O)CCCc2ccccc2)C1 (centres undefined)
ENDPOINT: cytotoxicity at 10 µM
UNITS TEXT: %
RESULT NUMBER: -0.95
//
MOLECULE: CC(C)c1ccn(C2(C(=O)O)CCN(c3ccncc3F)CC2)n1
ENDPOINT: cytotoxicity at 10 µM
UNITS TEXT: %
RESULT NUMBER: -0.679
//
MOLECULE: CCC(=O)N(C)Cc1cccc(OC(C)C)c1
ENDPOINT: cytotoxicity at 10 µM
UNITS TEXT: %
RESULT NUMBER: 12.8

Please examine the following record next.
[in] Query (molecule): CCc1nnc(CN2CCN(C(=O)c3cc4ccccc4[nH]3)CC2)o1 ; field requested: cytotoxicity at 10 µM
[out] -0.385

* * *

The following compounds are shown together with reported cytotoxicity at 10 µM values.
assay: Toxicity liver stage against HepG2, at 10uM; format: cell-based; set-up: test concentration 10 uM, cell line HepG2-A16-CD81EGFP; conditions: human, HepG2-A16-CD81EGFP cells; read-out: INHIBITION
The response must be a number in % with no trailing unit.

COMPOUND: CC(Cn1ccnc1)NC(=O)C1(c2ccccc2)CC1 (configuration not stated)
cytotoxicity at 10 µM, %: -5.74
//
COMPOUND: CC(C)=CCN1CCC2(CC1)CC(=O)N(Cc1cc(F)cc(F)c1)C2
cytotoxicity at 10 µM, %: 0.308
//
COMPOUND: CC1CN(c2ccc(CNC(=O)c3ccn(C)c(=O)c3)cn2)CCO1 (configuration not stated)
cytotoxicity at 10 µM, %: 2.82
//
COMPOUND: O=C(O)Cc1nc2nccc(-c3ccc(F)cc3)n2n1
cytotoxicity at 10 µM, %: -1.53
//
COMPOUND: CCCN1CCN(C(=O)Cc2nc(-c3ccco3)oc2C)CC1
cytotoxicity at 10 µM, %: -6.14
//
COMPOUND: CCC1CN(c2ncnc3nc[nH]c23)CCO1 (configuration not stated)
cytotoxicity at 10 µM, %: 19.5
//
COMPOUND: CCCc1nc(CN(C)CCOc2ccccc2)cs1
cytotoxicity at 10 µM, %: -8.53
//
COMPOUND: Cn1cccc1-c1cc(C(=O)N2CCCCC2c2ccc(F)cc2)[nH]n1 (configuration not stated)
cytotoxicity at 10 µM, %: -2.8

[in] // returns reported cytotoxicity at 10 µM for input NCC(=O)N1CCCC1c1n[nH]cc1-c1ccccc1F (configuration not stated)
[out] 2.37

[in] Can you share its cytotoxicity at 10 µM? I mean this compound: CCOCCN1CCN(CC(O)c2ccc(C(F)(F)F)cc2)CC1 (configuration not stated)
[out] -16.6

[in] I would be grateful if you could share the reported cytotoxicity at 10 µM for O=C(NCc1cscn1)NC1CCN(c2ncccc2Cl)C1 (configuration not stated) .
[out] -1.24

[in] Can you share its cytotoxicity at 10 µM? I mean this compound: CN1CCN2C[C@@H](NC(=O)c3nc4ccccc4[nH]3)C[C@H]2C1
[out] -0.159

* * *

test: Toxicity liver stage against HepG2, at 10uM; assay type: cell-based; parameters: test concentration 10 uM, cell line HepG2-A16-CD81EGFP; settings: human, HepG2-A16-CD81EGFP cells; read-out: INHIBITION
Recorded measurements of cytotoxicity at 10 µM, one per entry
Just so you know, I need the unit written after the number.

COMPOUND: Cc1nn(CCO)c(C)c1CN1CCN(C2CCCCC2)C(=O)C1
cytotoxicity at 10 µM: 0.541%

Next compound, cytotoxicity at 10 µM to be filled in.
[in] Entry CC(C)=CCN1CCN(Cc2nc3ccccc3[nH]2)[C@H]2CS(=O)(=O)C[C@H]21 : reported cytotoxicity at 10 µM = ?
[out] -132%

* * *

assay: Toxicity liver stage against HepG2, at 10uM; type: cell-based; set-up: test concentration 10 uM, cell line HepG2-A16-CD81EGFP; details: human, HepG2-A16-CD81EGFP cells; read-out: INHIBITION
Entries and their measured cytotoxicity at 10 µM follow.
Express it in %; write the number only.

MOLECULE: CC(C)N1CCN2C(=O)N(C3CCCCC3)C[C@H]2C1
cytotoxicity at 10 µM [%]: 1.2
--
MOLECULE: Cn1cc(CN2CC[C@H](O)[C@@H](n3ccc(=O)[nH]c3=O)CC2)cn1
cytotoxicity at 10 µM [%]: 20.4
--
MOLECULE: COC(=O)C1CCN(C(=O)Nc2cc(-n3cccc3)ccc2F)CC1
cytotoxicity at 10 µM [%]: 5.44
--
MOLECULE: CCCc1nc2c(c(C)c(C)n2CCN(C)C)c(N)c1CC
cytotoxicity at 10 µM [%]: 12.9

Okay, next one:
[in] Endpoint output: cytotoxicity at 10 µM of Cc1ccc(CNC(=O)CCN2CCN(c3ccccn3)CC2)n1C . Value?
[out] 19.8

* * *

assay: Toxicity liver stage against HepG2, at 10uM; assay type: cell-based; set-up: test concentration 10 uM, cell line HepG2-A16-CD81EGFP; details: human, HepG2-A16-CD81EGFP cells; read-out: INHIBITION
Measured cytotoxicity at 10 µM values are reported for all entries that follow.
Give your result in % as a bare value.

COMPOUND: O=C(c1ccnnc1)N1CCC2(CC1)CC(N1CCOCC1)C2
UNITS TEXT: %
cytotoxicity at 10 µM: 6.97
//
COMPOUND: O=C(Cc1ccccc1)N1CCC2(CC1)CC(Nc1cnccn1)CO2 (stereo unspecified)
UNITS TEXT: %
cytotoxicity at 10 µM: 5.1
//
COMPOUND: CN1CCN(S(=O)(=O)NCC2COc3ccccc3C2)CC1 (stereo unspecified)
UNITS TEXT: %
cytotoxicity at 10 µM: -3.33
//
COMPOUND: Cc1nn(C)cc1-c1ccnc(N2CCCN(CC(C)C)CC2)n1
UNITS TEXT: %
cytotoxicity at 10 µM: 4.26
//
COMPOUND: Cc1ncsc1C(=O)N1CCN(CCC(C)C)CC1
UNITS TEXT: %
cytotoxicity at 10 µM: 9.34

[in] Requested field: cytotoxicity at 10 µM. Item: Cc1cccc(N2N=C(C(=O)NC(C)Cn3cccn3)CCC2=O)c1 (stereo unspecified)
[out] 0.479

[in] Given the entry O=C1CO[C@@H]2CN(Cc3ccncc3)C[C@H]2N1Cc1ccncc1 , report its measured cytotoxicity at 10 µM.
[out] -85

[in] Requested field: cytotoxicity at 10 µM. Item: CCC1CCCCN1Cc1nc2c(cnn2C)c(=O)[nH]1 (stereo unspecified)
[out] -3.18

[in] Need cytotoxicity at 10 µM of CN(C)CCO[C@H]1CN(Cc2ccc3c(c2)OCO3)[C@@H]2COC[C@H]12 , thanks.
[out] -5.5

[in] Which value of cytotoxicity at 10 µM has been reported for CCN1CCn2c(-c3cccc(F)c3)cnc2C12CCN(C(C)=O)CC2 in the records?
[out] -1.09

[in] Give the measured cytotoxicity at 10 µM of CCCC(NC(=O)c1cnccn1)c1nnc2ccccn12 (stereo unspecified) .
[out] 11.1

Values were extracted from ChEMBL document CHEMBL4513216.
